B1: PSD2 (parent)
chain: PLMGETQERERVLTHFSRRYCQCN

- Variants of: B1
- Assay: protein stability index of a GFP-peptide fusion (GPS, HEK-293T) (PSI 1-6); higher = more stable;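 note: lentivirally expressed fusions sorted by FACS into six bins by GFP to DsRed ratio, PSI derived from sequencing read proportions per bin multiplied by bin number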
- Condition Context: c terminus: a fixed tail appended
Entries and their measured protein stability index follow.
# output: bare number, no unit

S17Q 2.97
E5P 2.94
C23M 2.92
P1S 2.98
L2R 3.08
S17K 2.95
P1N 2.97
T6E 3.05
C21I 3.06
T6D 2.98

Fill in: protein stability index of `R18P` is ___
3.01

Fill in: protein stability index of `V12K` is ___
2.96
